- system-under-test: human capsaicin receptor (Homo sapiens, UniProt Q8NER1)
- Construct: pBK-CMV expression construct encoding the full length human capsaicin receptor; expressed in transfected cells
- Sequence (Q8NER1 whole entry): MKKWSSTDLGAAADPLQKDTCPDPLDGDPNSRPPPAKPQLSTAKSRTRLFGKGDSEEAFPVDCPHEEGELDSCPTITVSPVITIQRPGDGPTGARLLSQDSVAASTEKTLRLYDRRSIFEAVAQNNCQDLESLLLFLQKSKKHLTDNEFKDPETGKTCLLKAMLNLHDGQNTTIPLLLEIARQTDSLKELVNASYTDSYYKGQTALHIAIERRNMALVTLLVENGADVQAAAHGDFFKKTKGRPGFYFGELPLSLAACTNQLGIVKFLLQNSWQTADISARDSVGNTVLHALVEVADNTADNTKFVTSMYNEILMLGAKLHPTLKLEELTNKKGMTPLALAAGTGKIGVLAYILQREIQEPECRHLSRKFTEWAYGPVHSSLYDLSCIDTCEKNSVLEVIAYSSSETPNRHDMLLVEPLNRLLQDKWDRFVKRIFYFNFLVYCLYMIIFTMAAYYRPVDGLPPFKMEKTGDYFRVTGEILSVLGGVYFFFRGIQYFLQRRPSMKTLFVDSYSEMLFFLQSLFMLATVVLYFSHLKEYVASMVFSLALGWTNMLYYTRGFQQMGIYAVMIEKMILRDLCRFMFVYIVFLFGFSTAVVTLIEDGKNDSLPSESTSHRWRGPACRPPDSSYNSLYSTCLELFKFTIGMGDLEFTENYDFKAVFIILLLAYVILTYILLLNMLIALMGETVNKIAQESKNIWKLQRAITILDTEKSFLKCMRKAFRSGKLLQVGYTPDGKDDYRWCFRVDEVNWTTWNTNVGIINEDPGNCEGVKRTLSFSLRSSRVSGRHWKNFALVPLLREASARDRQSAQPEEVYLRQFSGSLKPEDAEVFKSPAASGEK
- protocol-summary: Calcium mobilization assay, determination of antagonist activity (Example 6)
- Type: cell-based
- test-context: Table II; determined as described in Example 6 (antagonist activity); "*" = 1 micromolar or less
Overview of recorded IC50 for various molecules

Prompt: // query IC50 value for entry Cc1ccc(C)n1-c1nc(-c2ccc(C#N)cc2)cc(N2CCN(c3ncccc3Cl)C[C@H]2C)n1
Completion: ≤ 1000 nM

Prompt: Likewise for C[C@@H]1CN(c2ncccc2C(F)(F)F)CCN1c1cc(-c2ccc(F)c(F)c2)nc(N2CCCCC2)n1 ?
Completion: ≤ 1000 nM

Prompt: Cool, now CC1CCCN1c1nc(-c2ccc(F)cc2)cc(N2CCN(c3nccnc3Cl)C[C@H]2C)n1 (stereo partly shown)
Completion: ≤ 1000 nM

Prompt: Another molecule: Cc1cc(N)cnc1N1CCN(c2cc(-c3ccc(F)c(Cl)c3)nc(N3CCCC3C)n2)CC1 (stereo not shown)
Completion: ≤ 1000 nM
